A set of compounds tested on Ras-related C3 botulinum toxin substrate 1 (Homo sapiens) (UniProt P63000), with measured pKi:
# pKi: negative log10 of molar concentration; output just the value

Solved cases (5 shown):
1) COc1ccc(-c2noc(CCC(=O)N3CCN(c4ccccc4F)CC3)n2)cc1 7.00
2) Cc1ccc(C)c(N2CCN(C(=O)CCc3nc(-c4ccc(C(F)(F)F)cc4)no3)CC2)c1 6.70
3) COc1ccc(-c2noc(CC(=O)N3CCN(c4cc(C)ccc4C)CC3)n2)cc1 6.15
4) Cc1ccc(C)c(N2CCN(C(=O)CCc3nc(-c4ccccc4Cl)no3)CC2)c1 6.96
5) Cc1ccc(C)c(N2CCN(C(=O)CCc3nc(-c4cccc(Br)c4)no3)CC2)c1 6.80

Requested field: pKi. Item: COc1ccc(-c2noc(CCC(=O)N3CCN(c4ccc(F)cc4)CC3)n2)cc1 6.82

Requested field: pKi. Item: Cc1ccc(C)c(N2CCN(C(=O)CCc3nc(-c4cccc(Cl)c4)no3)CC2)c1 6.34

Requested field: pKi. Item: Cc1ccc(C)c(N2CCN(C(=O)CCc3nc(-c4ccccc4)no3)CC2)c1 6.82

Requested field: pKi. Item: COc1ccc(-c2noc(CCCCC(=O)N3CCN(c4cc(C)ccc4C)CC3)n2)cc1 5.71

Requested field: pKi. Item: Cc1ccc(C)c(N2CCN(C(=O)CCc3nc(-c4ccc(F)cc4)no3)CC2)c1 6.92
